molecular target: RNA-directed RNA polymerase (Hepacivirus hominis, UniProt O39930); test: Displacement of [alpha-32P]GTP from recombinant HCV NS5B RNA dependent RNA polymerase
Sequence (O39930 whole entry): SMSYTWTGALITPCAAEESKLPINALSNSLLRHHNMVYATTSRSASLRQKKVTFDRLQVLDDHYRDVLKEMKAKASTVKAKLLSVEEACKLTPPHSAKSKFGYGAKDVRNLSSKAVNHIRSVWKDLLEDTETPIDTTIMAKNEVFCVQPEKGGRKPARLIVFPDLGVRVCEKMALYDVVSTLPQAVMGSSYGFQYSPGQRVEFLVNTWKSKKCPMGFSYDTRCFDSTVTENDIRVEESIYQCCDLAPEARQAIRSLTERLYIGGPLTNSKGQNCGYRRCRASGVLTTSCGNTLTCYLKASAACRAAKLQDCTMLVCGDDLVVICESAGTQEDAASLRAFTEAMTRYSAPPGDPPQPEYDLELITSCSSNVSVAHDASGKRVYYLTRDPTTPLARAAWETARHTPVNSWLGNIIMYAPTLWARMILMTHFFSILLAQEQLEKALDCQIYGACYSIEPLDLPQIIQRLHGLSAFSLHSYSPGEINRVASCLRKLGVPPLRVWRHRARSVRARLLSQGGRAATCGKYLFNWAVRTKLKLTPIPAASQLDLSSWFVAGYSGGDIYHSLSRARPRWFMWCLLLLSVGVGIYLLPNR
readout_label: IC50 (nM)
The reply should be a number in nM, with the unit left off.

Here are 3 compounds together with their reported answers.
compound: CCC[C@]1(CC(=O)O)OCCc2c1sc1c(C)ccc(C#N)c21
IC50 [nM]: 170
--
compound: CCC1(CC(=O)O)OCCc2c1oc1c(Cl)ccc(Cl)c21 (stereo not drawn)
IC50 [nM]: 16300
--
compound: CCC[C@@]1(CC(=O)O)OCCc2c1sc1c(C)cc(F)c(C#N)c21
IC50 [nM]: 5360

Answer with the recorded IC50 for the compound listed here: CCC[C@]1(CC(=O)O)OCCc2c1sc1c(C)cc(F)c(C#N)c21
50

Find the measured IC50 of CCCCC1(CC(=O)O)OCCc2c1sc1c(Cl)ccc(Cl)c21 (stereo not drawn) and report it.
750

Tell me measured IC50 for CCCC1(CC(=O)O)OCCc2c1oc1c(Cl)ccc(Cl)c21 (stereo not drawn) please.
1490

---

molecular target: Human immunodeficiency virus type 1 reverse transcriptase (Human immunodeficiency virus 1)
pIC50: −log10 of the molar value.
readout_label: pIC50

Specify pIC50 for CCC[C@]1(CC(=O)O)OCCc2c1sc1c(C)cc(F)c(C#N)c21 , system Human immunodeficiency virus type 1 reverse transcriptase (Human immunodeficiency virus 1).
< 4.00

---

test system: Huh-7; experiment: Cytotoxicity against Huh7 cells by MTS metabolic assay; type: functional, cell-based; conditions: Homo sapiens
pIC50: −log10 of the molar value.
readout_label: pIC50

Give pIC50; test system Huh-7; compound CCC[C@]1(CC(=O)O)OCCc2c1sc1c(C)cc(F)c(C#N)c21
< 4.12

---

Catalogue of IC50 values
molecular target: RNA-directed RNA polymerase (Hepacivirus hominis); assay: Displacement of [alpha-32P]GTP from recombinant HCV NS5B RNA dependent RNA polymerase
Write it as a number; the unit nM goes unstated.

Worked set:
compound: CCC1(CC(=O)O)OCCc2c1sc1c(Cl)ccc(Cl)c21 (configuration not stated)
experimental_system: RNA-directed RNA polymerase (Hepacivirus hominis)
unit_abbreviation: nM
measured_result: 1900
//
compound: CC1(CC(=O)O)OCCc2c1sc1c(Cl)ccc(Cl)c21 (configuration not stated)
experimental_system: RNA-directed RNA polymerase (Hepacivirus hominis)
unit_abbreviation: nM
measured_result: 17600
//
compound: CCCCC1(CC(=O)O)OCCc2c1oc1c(Cl)ccc(Cl)c21 (configuration not stated)
experimental_system: RNA-directed RNA polymerase (Hepacivirus hominis)
unit_abbreviation: nM
measured_result: 4460
//
compound: CCCC1(CC(=O)O)OCCc2c1sc1c(C)cc(F)c(C#N)c21 (configuration not stated)
experimental_system: RNA-directed RNA polymerase (Hepacivirus hominis)
unit_abbreviation: nM
measured_result: 130
//
compound: CCC[C@@]1(CC(=O)O)OCCc2c1sc1c(C)ccc(C#N)c21
experimental_system: RNA-directed RNA polymerase (Hepacivirus hominis)
unit_abbreviation: nM
measured_result: 2850
//
compound: CCCC1(CC(=O)O)OCCc2c1sc1c(C)ccc(C#N)c21 (configuration not stated)
experimental_system: RNA-directed RNA polymerase (Hepacivirus hominis)
unit_abbreviation: nM
measured_result: 320
//
compound: CCCC1(CC(=O)O)OCCc2c1sc1c(Cl)ccc(Cl)c21 (configuration not stated)
experimental_system: RNA-directed RNA polymerase (Hepacivirus hominis)
unit_abbreviation: nM
measured_result: 140

Here is another compound to look at.
State the measured IC50 (RNA-directed RNA polymerase (Hepacivirus hominis)) of CCCC1(CC(=O)O)OCCc2c1sc1c(C)ccc(Br)c21 (configuration not stated)
190

---

biological target: RNA-directed RNA polymerase (Hepacivirus hominis); test: Displacement of [alpha-32P]GTP from recombinant HCV NS5B RNA dependent RNA polymerase
pIC50: −log10 of the molar value.
Property: pIC50; scope: individual compounds

In the examples that follow, each entry is paired with its recorded pIC50.
compound: CC1(CC(=O)O)OCCc2c1oc1c(Cl)ccc(Cl)c21 (centres undefined)
experimental_system: RNA-directed RNA polymerase (Hepacivirus hominis)
pIC50: < 4.70
//
compound: CCCC1(CC(=O)O)OCCc2c1oc1ccccc21 (centres undefined)
experimental_system: RNA-directed RNA polymerase (Hepacivirus hominis)
pIC50: < 4.70
//
compound: CCCC1(CC(=O)O)OCCc2c1sc1ccccc21 (centres undefined)
experimental_system: RNA-directed RNA polymerase (Hepacivirus hominis)
pIC50: < 4.70

Alright, here's another compound for you.
For the compound CCCC1(CC(=O)O)OCCc2c1sc1c(C)cc(F)cc21 (centres undefined) , report pIC50.
< 4.70
